- experiment description: Melatonin serum levels by ELISA in normal and BDL rats
- Format: in vivo
- test context: male, Fischer 344, rat, oral, 20 mg/L in drinking water, BDL rats, tap water containing melatonin (20 mg/L) for 1 week
measure name: concentration at 1 week (ng/mL)
// return numeric value only (unit: ng/mL, not printed)

Challenge: # input compound: COc1ccc2[nH]cc(CCNC(C)=O)c2c1 [melatonin] ; wanted: its concentration at 1 week
Response given: 0.165
